Tested on: 126254-015-R-J1-PDC complex spheroid growth, % test/control;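 further: spheroids exposed to compound for seven days; 100% = DMSO vehicle control wells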
Test: Anticancer human tumor 126254-015-R-J1-PDC patient-derived soft tissue sarcoma cell line growth inhibition [Asc]
Conditions: second compound 0.01 µM; first compound 0.01 µM; hits give low values
The reader will find reported viability, T/C values listed item by item below.
Dear colleague, please return just the value in %, with no unit written.

Any idea what viability, T/C was measured for Cn1ncnc1[C@H]1c2n[nH]c(=O)c3cc(F)cc(c23)N[C@@H]1c1ccc(F)cc1 + CNC(C)C(=O)NC1CN(S(=O)(=O)c2cccc(S(=O)(=O)N3CCC4CCC(C(=O)NC(c5ccccc5)c5ccccc5)N4C(=O)C(NC(=O)C(C)NC)C3)c2)CCC2CCC(C(=O)NC(c3ccccc3)c3ccccc3)N2C1=O ? 79.6

// query viability, T/C value for entry O=C(c1ccc(F)c(F)c1Nc1ccc(I)cc1F)N1CC(O)([C@@H]2CCCCN2)C1 + CNC(C)C(=O)NC1CN(S(=O)(=O)c2cccc(S(=O)(=O)N3CCC4CCC(C(=O)NC(c5ccccc5)c5ccccc5)N4C(=O)C(NC(=O)C(C)NC)C3)c2)CCC2CCC(C(=O)NC(c3ccccc3)c3ccccc3)N2C1=O 87.6
